Quantity Kind: melting point

Solved entries (count: 3):
CC(C)(C)OC(=O)C1CC(c2ccc(N)cc2)CCN1 (centres undefined) ... 114 to 116 °C
NNc1ccc(C(=O)O)cn1 ... 292 to 293 °C
CCOc1nc(O)cc(O)n1 ... > 250 °C

Okay, now this compound:
Entry NC(=O)N1CCC[C@@H]1C#CCN1CCCC1 has what melting point?
117 to 122 °C

###

Reported melting point is given for each of the following molecules.

Entry O=c1[nH]c2ncccc2c(=O)n1-c1ccccc1 has what melting point?
304 °C

Entry Nc1nc(-c2ccccc2Cl)nc(N2CCCCC2)n1 has what melting point?
184 to 186 °C

Entry CC1CC(=O)NN=C1c1ccc2[nH]c(-c3ccnnc3)cc2c1 (stereo unspecified) has what melting point?
293 to 295 °C

###

Reported melting point is given for each of the following molecules.

Solved entries (count: 5):
Cc1ccc(C)c2c1C(=O)N(CCl)S2(=O)=O ... 107 to 108 °C
O=c1cc2c3ccccc3sn2c2ccc(Cl)cc12 ... > 350 °C
CCOC(=O)C1=C(C)NC(COC(=O)COc2ccc(Cl)cc2)=C(C(=O)OCC)C1c1ccccc1[N+](=O)[O-] (stereo unspecified) ... 86 to 88 °C
Cc1noc(NS(=O)(=O)c2ccc(NCc3ccccc3)cc2)c1C ... 47 to 48 °C
CCCCc1oc2ccc(NS(=O)(=O)c3ccc(C)cc3)cc2c1C(=O)c1ccc(OCCCN(CCCC)CCCC)cc1 ... 110 °C

Okay, now this molecule:
Entry NS(=O)(=O)c1cc2c(cc1Cl)C(=O)N(CCc1ccccn1)C2=O has what melting point?
240 to 241 °C

###

Quantity Kind: melting point

Solved entries (count: 3):
CCCC(=O)c1cc2nc(C=O)n(C)c2cc1C ... 107 to 108 °C
Nc1ccc(N2CCN(Cc3ccccc3)CC2)cc1 ... 137 to 138 °C
CSC(N)=Nc1nncs1 ... 116 to 117 °C

Entry CC(C)(C)c1cc(Br)c(C(C)(C)C)cc1N has what melting point?
89 to 90 °C

Entry N#Cc1ccc(-c2ccc(OC(F)(F)F)c(CNC3CCN(C(=O)CO)CC3c3ccccc3)c2)c(F)c1 (centres undefined) has what melting point?
132 to 134 °C

Entry O=C(O)CCCOc1ccccc1OCCC(c1ccccc1)(c1ccccc1)c1ccccc1 has what melting point?
107 to 108 °C

Entry CC(C)(C)OC(=O)N1CCC(c2ccc(COc3cccc([N+](=O)[O-])c3)nc2)CC1 has what melting point?
94 to 96 °C

Entry Cc1nc(-n2ccc(O)cc2=O)sc1C(=O)NCc1ccncc1 has what melting point?
275 to 278 °C

Entry c1ccc(-c2ccc(-c3cc4ccccc4[nH]3)cc2)cc1 has what melting point?
301 °C

Entry CC(C)(C)OC(=O)c1cccc(C#N)n1 has what melting point?
156 to 157 °C

Entry CCCOc1cc2sc(C(=O)O)cc2cc1OCC has what melting point?
192 to 194 °C

Entry O=Cc1ccc(-c2ccc(-c3ccsc3)s2)s1 has what melting point?
155 to 157 °C

Entry CC(C)(C)c1ccc(OCC(O)CCCl)cc1 (centres undefined) has what melting point?
45 to 47 °C

Entry CC(C)(C)OC(=O)Nc1ccc(OC2CNC2)cc1 has what melting point?
184 to 186 °C

Entry C[C@@H]1C(=O)C[C@H]2C[C@@H]1OO[C@@]2(C)/C=C\c1ccc(F)cc1 has what melting point?
84 °C

Entry NNc1c(Cl)c(Cl)nc(C(=O)O)c1Cl has what melting point?
166 to 168 °C

Entry CC(C)c1cc(C(=O)Nc2ccc(OCC(=O)O)cc2)oc1C(C)C has what melting point?
83 to 85 °C

Entry Cc1ccc(-c2nn(-c3cccc(C(=O)O)c3)c(N)c2C(N)=O)cc1 has what melting point?
232 to 235 °C

Entry CCCN(C(=O)CBr)c1ccc([N+](=O)[O-])cc1C(=O)c1ccccc1 has what melting point?
122 °C

Entry CC(C)=CCOc1ccc(OCC=C(C)C)c(C(=O)NCCc2ccncc2)c1 has what melting point?
92.7 to 93.5 °C

Entry O=C(Cn1c2c(c(=O)n3nc(-c4ccccc4)cc13)CN(C1CCCCC1)C2=O)c1ccccc1 has what melting point?
164 to 167 °C

Entry CCc1n[nH]c(CCOc2ccc(S(C)(=O)=O)cc2)c1Oc1cc(C#N)cc(C#N)c1 has what melting point?
88 to 90 °C

Entry Cc1nnc(-c2ccc3occ(-c4ccc(OS(=O)(=O)C(F)(F)F)cc4)c3c2)o1 has what melting point?
136 to 137 °C

Entry O=C(Cc1ccccc1[N+](=O)[O-])c1ccccc1F has what melting point?
84 to 86 °C
